molecular target: corticotropin releasing factor 1 receptor; test: cell-based or functional assay
Ends that are not written are not given here.
For each entry below, report its CRF1R Emax % value.
Record the value in %, omitting the unit from your answer.

// query Using the record for IVLSLDVSIGLLQILLEQARARAAREQATTNARILARV-NH2 [SEQ ID NO 370] , report its CRF1R Emax %.
// result 33

// query Using the record for DNPSLSIDLPYYLLRTLLELARTQSQRERAEQNAIIFASV-NH2 [SEQ ID NO 263] , report its CRF1R Emax %.
// result 72

// query Using the record for DNPSLSIDLPLLLLRTLLELEKTQSQRERAEQNAQIFAHV-NH2 [SEQ ID NO 324] , report its CRF1R Emax %.
// result 46.6

// query Using the record for ZGPPISIDLPHALLRKMIEIEKQEKEKQQAANNRLLLDTI (not fully specified; C-terminal amide) [SEQ ID NO 304] , report its CRF1R Emax %.
// result 100

// query Using the record for ZGPPISIDVPYYLLRKVIEIEKQEKEKQQAANNARLLARI (C-terminal amide) [SEQ ID NO 378] , report its CRF1R Emax %.
// result 36

// query Using the record for ZGPPISIDLPQALLRKMIEIEKQEKEKQQAANNRLLLDTI (not fully specified; C-terminal amide) [SEQ ID NO 302] , report its CRF1R Emax %.
// result 100
